Provenance of the data: paper PMC11790914

molecular target: FGFR3 (Homo sapiens, UniProt P22607); construct: made in house; assay: Liability panel screening by DSF: FGFR3; type: binding; conditions: DSF, 20 µM, n=2; read-out: Mean ΔTM FGFR3
Sequence (P22607 23-806, species assumed): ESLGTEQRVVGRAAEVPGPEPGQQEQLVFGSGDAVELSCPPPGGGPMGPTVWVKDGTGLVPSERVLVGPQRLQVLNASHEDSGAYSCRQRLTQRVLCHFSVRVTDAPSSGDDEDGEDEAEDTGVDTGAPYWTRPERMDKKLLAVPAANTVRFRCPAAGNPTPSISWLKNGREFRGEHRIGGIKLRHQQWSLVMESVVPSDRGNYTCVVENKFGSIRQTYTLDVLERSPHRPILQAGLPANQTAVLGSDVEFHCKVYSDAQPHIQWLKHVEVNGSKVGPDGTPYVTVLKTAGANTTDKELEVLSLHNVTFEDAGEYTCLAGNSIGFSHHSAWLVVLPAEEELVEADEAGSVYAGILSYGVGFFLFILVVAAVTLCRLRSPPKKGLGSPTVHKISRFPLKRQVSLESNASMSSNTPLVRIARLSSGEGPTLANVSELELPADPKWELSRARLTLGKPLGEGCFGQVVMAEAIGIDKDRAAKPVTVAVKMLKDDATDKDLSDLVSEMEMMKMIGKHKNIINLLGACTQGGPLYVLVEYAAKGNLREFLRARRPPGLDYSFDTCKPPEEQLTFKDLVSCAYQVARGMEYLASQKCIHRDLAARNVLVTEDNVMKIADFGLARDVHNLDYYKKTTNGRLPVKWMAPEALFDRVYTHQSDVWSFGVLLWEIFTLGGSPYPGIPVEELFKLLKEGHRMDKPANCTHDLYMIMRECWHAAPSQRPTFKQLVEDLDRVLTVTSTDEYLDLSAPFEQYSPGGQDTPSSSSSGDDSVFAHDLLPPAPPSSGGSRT
For each of the compounds below, state its ΔTm at 20 µM.
One number for each entry, in °C.

Sample records with ΔTm at 20 µM:
compound=O=C(/C=C/c1ccc(O)cc1)c1ccc(O)cc1O subject_of_test="FGFR3 (Homo sapiens, UniProt P22607)" endpoint="ΔTm at 20 µM" result_unit=°C reported_result=1.26
compound=CC(C)(c1ccc(O)cc1)c1ccc(O)cc1 subject_of_test="FGFR3 (Homo sapiens, UniProt P22607)" endpoint="ΔTm at 20 µM" result_unit=°C reported_result=0.44
compound=C[C@@H]1Cc2c([nH]c3ccccc23)[C@@H](c2c(F)cc(/C=C/C(=O)O)cc2F)N1CC(C)(C)F subject_of_test="FGFR3 (Homo sapiens, UniProt P22607)" endpoint="ΔTm at 20 µM" result_unit=°C reported_result=0.58
compound=Oc1ccc(-c2nc3cc(O)cc(Br)c3o2)cc1 subject_of_test="FGFR3 (Homo sapiens, UniProt P22607)" endpoint="ΔTm at 20 µM" result_unit=°C reported_result=1.16
compound="CC(=O)O[C@]1(C(C)=O)CC[C@H]2[C@@H]3C=C(Cl)C4=CC(=O)[C@@H]5C[C@@H]5[C@]4(C)[C@H]3CC[C@@]21C [Cyproterone acetate]" subject_of_test="FGFR3 (Homo sapiens, UniProt P22607)" endpoint="ΔTm at 20 µM" result_unit=°C reported_result=0.57
compound=COC(=O)[C@@H]1CC2=CC(=O)CC[C@]2(C)[C@@]23O[C@@H]2C[C@@]2(C)[C@@H](CC[C@@]24CCC(=O)O4)[C@H]13 subject_of_test="FGFR3 (Homo sapiens, UniProt P22607)" endpoint="ΔTm at 20 µM" result_unit=°C reported_result=1.06
compound=CCN(CC)c1ccc(/C=N/NC(=O)c2ccc(O)cc2)cc1 subject_of_test="FGFR3 (Homo sapiens, UniProt P22607)" endpoint="ΔTm at 20 µM" result_unit=°C reported_result=0.00876

*Q* What measured ΔTm at 20 µM goes with CC/C(=C(/c1ccc(/C=C/C(=O)O)cc1)c1ccc2[nH]ncc2c1)c1ccc(F)cc1Cl ?
*A* -5.4

---

Target: ABL1 (Homo sapiens)
Construct: made in house
Sequence (P00519 whole entry, species assumed): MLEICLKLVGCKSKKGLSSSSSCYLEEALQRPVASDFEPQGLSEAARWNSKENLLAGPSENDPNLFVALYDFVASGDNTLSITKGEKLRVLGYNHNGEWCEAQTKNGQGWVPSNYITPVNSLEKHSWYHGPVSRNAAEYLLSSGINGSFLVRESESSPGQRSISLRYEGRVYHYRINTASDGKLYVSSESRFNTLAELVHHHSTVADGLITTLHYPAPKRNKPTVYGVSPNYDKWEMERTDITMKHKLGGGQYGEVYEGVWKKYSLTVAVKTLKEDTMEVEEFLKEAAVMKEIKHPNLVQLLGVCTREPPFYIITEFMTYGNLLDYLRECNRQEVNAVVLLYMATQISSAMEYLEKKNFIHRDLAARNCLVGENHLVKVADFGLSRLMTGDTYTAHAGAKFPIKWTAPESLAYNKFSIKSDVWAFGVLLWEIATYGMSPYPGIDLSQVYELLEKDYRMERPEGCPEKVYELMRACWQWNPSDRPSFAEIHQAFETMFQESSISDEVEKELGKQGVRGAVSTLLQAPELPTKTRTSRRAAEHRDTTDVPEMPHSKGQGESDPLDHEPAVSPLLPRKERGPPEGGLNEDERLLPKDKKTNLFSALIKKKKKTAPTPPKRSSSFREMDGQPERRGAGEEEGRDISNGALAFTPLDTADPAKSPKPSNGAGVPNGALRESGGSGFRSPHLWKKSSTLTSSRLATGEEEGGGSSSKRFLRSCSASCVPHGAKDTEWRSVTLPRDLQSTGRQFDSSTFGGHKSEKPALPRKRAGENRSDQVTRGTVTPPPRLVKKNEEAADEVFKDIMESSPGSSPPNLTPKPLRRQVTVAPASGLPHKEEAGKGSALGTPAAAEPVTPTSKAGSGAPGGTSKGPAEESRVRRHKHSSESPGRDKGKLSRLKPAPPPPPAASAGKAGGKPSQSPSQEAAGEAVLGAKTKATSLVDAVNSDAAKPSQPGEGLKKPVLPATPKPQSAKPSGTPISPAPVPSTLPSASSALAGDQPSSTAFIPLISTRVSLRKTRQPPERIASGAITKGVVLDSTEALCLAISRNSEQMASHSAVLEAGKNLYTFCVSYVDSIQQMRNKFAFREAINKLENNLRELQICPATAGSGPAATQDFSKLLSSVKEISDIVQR
Assay: Liability panel screening by DSF: ABL1
Format: binding
Settings: DSF, 20 µM, n=2; read-out: Mean ΔTM ABL1
Method: Reference ligands are listed in the methods section. In-house produced recombinantly expressed proteins[62] of the liability panel targets were diluted in a buffer containing 10 mM HEPES (pH 7.5) and 500 mM NaCl to a concentration of 2 µM. SYPRO Orange (Invitrogen, Carlsbad, California, USA; #S6650) as a fluorescence probe was added at a 1:1000 dilution to the proteins. […]
endpoint: ΔTm at 20 µM (°C)
Give bare numbers, in °C.

Give one value of ΔTm at 20 µM per listed compound.
1. CC/C(=C(/c1ccc(/C=C/C(=O)O)cc1)c1ccc2[nH]ncc2c1)c1ccc(F)cc1Cl
2. C[C@H]1C[C@H]2[C@@H]3CCC4=CC(=O)C=C[C@]4(C)[C@@]3(Cl)[C@@H](O)C[C@]2(C)[C@@]1(O)C(=O)CO
3. CC(=O)OCC(=O)[C@@]1(O)CC[C@H]2[C@@H]3CCC4=CC(=O)CC[C@]4(C)[C@@]3(F)[C@@H](O)C[C@@]21C [Fludrocortisone acetate]
4. CCC(=O)O[C@]1(C(=O)SCF)[C@H](C)C[C@H]2[C@@H]3C[C@H](F)C4=CC(=O)C=C[C@]4(C)[C@@]3(F)[C@@H](O)C[C@@]21C [Fluticasone propionate]
5. CC/C(=C(\c1ccc(O)cc1)c1ccc(OCCN(C)C)cc1)c1ccccc1 [(Z)-4-Hydroxytamoxifen]
6. COc1cccc([C@@H](Oc2ccc3c(cnn3-c3ccc(F)cc3)c2)[C@H](C)NC(=O)C(F)(F)F)c1

*A*
-5.16
-0.27
-0.12
0.19
0.29
-0.84

---

For each of the compounds below, state its ΔTm at 20 µM.
target: TRIM24 (Homo sapiens, UniProt O15164); construct: This panel comprised ten highly ligandable kinases and bromodomains; made in house; assay: Liability panel screening by DSF: TRIM24; assay type: binding; conditions: DSF, 20 µM, n=2; read-out: Mean ΔTM TRIM24
Sequence (O15164 899-1004 limits assumed, species assumed): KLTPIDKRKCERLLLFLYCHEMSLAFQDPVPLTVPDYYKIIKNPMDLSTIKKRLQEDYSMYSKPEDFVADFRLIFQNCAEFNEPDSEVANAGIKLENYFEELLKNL
The answer should read as a number with its unit following.

compound="C[C@@H]1Cc2c([nH]c3ccccc23)[C@@H](c2c(F)cc(/C=C/C(=O)O)cc2F)N1CC(C)(C)F [AZD9496]" reported_result="-0.62 °C"
compound="COc1cccc([C@@H](Oc2ccc3c(cnn3-c3ccc(F)cc3)c2)[C@H](C)NC(=O)C(F)(F)F)c1 [AZD5423]" reported_result="-2.31 °C"
compound="C[C@H]1C[C@H]2[C@@H]3CCC4=CC(=O)C=C[C@]4(C)[C@@]3(Cl)[C@@H](O)C[C@]2(C)[C@@]1(O)C(=O)CO [Beclomethasone]" reported_result="-1.53 °C"

Give one value of ΔTm at 20 µM per listed compound.
1. Oc1ccc(-c2nc3cc(O)cc(Br)c3o2)cc1 [WAY200070]
2. CC(C)c1ccc(/C=N/NC(=O)c2ccc(O)cc2)cc1 [GSK4716]

*A*
["0.24 °C", "0.64 °C"]

Give one value of ΔTm at 20 µM per listed compound.
1. COc1ccc2c(c1)OC(C)(C)C(c1ccccc1)C2c1ccc(OCCN2CCCC2)cc1 (stereo not shown) [Ormeloxifene]
2. CC(=O)OCC(=O)[C@@]1(O)CC[C@H]2[C@@H]3CCC4=CC(=O)CC[C@]4(C)[C@@]3(F)[C@@H](O)C[C@@]21C [Fludrocortisone acetate]

*A*
["-3.44 °C", "-0.96 °C"]

---

For each of the molecules below, state its Mean NFκB response.
Test system: NF-κB activity in HEK293 NF-κB reporter cells
Assay: NF-kB activity assay (GFP reporter, ionomycin/PMA)
Assay type: cell-based
Settings: 1 µM, 15 h, n=3
Method: Fig. 6 Application of the NR3 CG set. After 24 h, cells were incubated with the test compounds solubilized with 0.1% DMSO in the same medium without puromycin. After 4 h incubation, ionomycin (100 ng/mL) and phorbol-12-myristat-13-acetate (PMA, 10 ng/mL) was added, and the cells were imaged for confluence and GFP expression every 90 min. over 24 h using a Tecan SPARK Cyto (Tecan). The number of GFP expressing cells was normalized to confluence in each sample. […]

molecule=N#Cc1ccc([C@H]2CCCC[C@H]2O)cc1C(F)(F)F reported_result="27073.33 GFP+-cells/confluence ∙ 1000"
molecule="N#CC(Cc1ccc(O)cc1)c1ccc(O)cc1 (stereo not shown)" reported_result="29221.60 GFP+-cells/confluence ∙ 1000"
molecule=N#Cc1ccc(N2N=C3c4ccc(C(=O)O)cc4CC[C@@H]3[C@@H]2C2CCCC2)cc1Cl reported_result="28830.00 GFP+-cells/confluence ∙ 1000"

Alright, here's another molecule for you.
*Q* What measured Mean NFκB response goes with C[C@@H]1Cc2c([nH]c3ccccc23)[C@@H](c2c(F)cc(/C=C/C(=O)O)cc2F)N1CC(C)(C)F ?
*A* 20214.01 GFP+-cells/confluence ∙ 1000

---

target: BRD4 (Homo sapiens, UniProt O60885); construct: This panel comprised ten highly ligandable kinases and bromodomains; made in house; assay: Liability panel screening by DSF: BRD4; assay type: binding; details: DSF, 20 µM, n=2; read-out: Mean ΔTM BRD4
Categorized via ΔTm at 20 µM: label 0 (below -2 °C), label 1 (-2 °C to below -0.2 °C), label 2 (-0.2 °C or more)

molecule=O=C(/C=C/c1ccc(O)cc1)c1ccc(O)cc1O subject_of_test="BRD4 (Homo sapiens, UniProt O60885)" label_class="label 2"

*Q* Quick check: band for CCC(=O)O[C@]1(C(=O)SCF)[C@H](C)C[C@H]2[C@@H]3C[C@H](F)C4=CC(=O)C=C[C@]4(C)[C@@]3(F)[C@@H](O)C[C@@]21C [Fluticasone propionate]
*A* label 1

*Q* Quick check: band for N#Cc1ccc(N2N=C3c4ccc(C(=O)O)cc4CC[C@@H]3[C@@H]2C2CCCC2)cc1Cl
*A* label 2

*Q* Quick check: band for Oc1ccc(-c2c(-c3ccccc3)nn3c(C(F)(F)F)cc(C(F)(F)F)nc23)cc1
*A* label 1

*Q* Quick check: band for CC(C)c1ccc(/C=N/NC(=O)c2ccc(O)cc2)cc1
*A* label 1

*Q* Quick check: band for CC(C)(c1ccc(O)cc1)c1ccc(O)cc1
*A* label 0

*Q* Quick check: band for C[C@]12CC[C@@H]3c4ccc(O)cc4C[C@@H](CCCCCCCCC[S+]([O-])CCCC(F)(F)C(F)(F)F)[C@H]3[C@@H]1CC[C@@H]2O (stereo partly shown)
*A* label 0

*Q* Quick check: band for CC/C(=C(/c1ccc(/C=C/C(=O)O)cc1)c1ccc2[nH]ncc2c1)c1ccc(F)cc1Cl
*A* label 2

*Q* Quick check: band for CC/C(=C(\c1ccc(O)cc1)c1ccc(OCCN(C)C)cc1)c1ccccc1 [(Z)-4-Hydroxytamoxifen]
*A* label 0
